# tested system: T1, APJ receptor (human, UniProt P35414 1-380)
# T1 sequence (looked up): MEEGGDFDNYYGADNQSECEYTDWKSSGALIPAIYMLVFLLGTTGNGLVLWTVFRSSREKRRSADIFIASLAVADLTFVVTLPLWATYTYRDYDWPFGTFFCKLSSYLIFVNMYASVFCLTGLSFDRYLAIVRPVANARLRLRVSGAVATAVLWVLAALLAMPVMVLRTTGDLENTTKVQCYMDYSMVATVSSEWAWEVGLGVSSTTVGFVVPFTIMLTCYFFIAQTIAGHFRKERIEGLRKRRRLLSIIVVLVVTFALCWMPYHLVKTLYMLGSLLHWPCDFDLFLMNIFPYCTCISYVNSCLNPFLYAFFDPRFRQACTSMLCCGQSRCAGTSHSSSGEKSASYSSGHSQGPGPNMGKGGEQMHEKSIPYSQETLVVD
# experiment summary: cell-based or functional assay
[ ]: non-standard residue; d: D form. pGlu = O=C1CC[C@@H](C(=O)O)N1; dNle = CCCC[C@@H](N)C(=O)O; Nle = CCCC[C@H](N)C(=O)O; Aib = CC(C)(N)C(=O)O
reported property: hAPJ Ca^2+ Flux EC50 (nM)
Provide only the numeric value, understood in nM.

binder | hAPJ Ca^2+ Flux EC50 / nM
[pGlu]R[dA]RL[dA]HKGP[dNle][dA][dF]-OH (SMILES CCCC[C@@H](NC(=O)[C@@H]1CCCN1C(=O)CNC(=O)[C@H](CCCCN)NC(=O)[C@H](Cc1c[nH]cn1)NC(=O)[C@@H](C)NC(=O)[C@H](CC(C)C)NC(=O)[C@H](CCCNC(=N)N)NC(=O)[C@@H](C)NC(=O)[C@H](CCCNC(=N)N)NC(=O)[C@@H]1CCC(=O)N1)C(=O)N[C@H](C)C(=O)N[C@H](Cc1ccccc1)C(=O)O) [pE-R-a-R-L-a-H-K-G-P-nle-a-f-OH] | 623

Consider the record given below.
Exercise: Can you look up the measured hAPJ Ca^2+ Flux EC50 of [pGlu]RPRLS[Aib]KGP[Nle][dA][dF]-OH (SMILES CCCC[C@H](NC(=O)[C@@H]1CCCN1C(=O)CNC(=O)[C@H](CCCCN)NC(=O)C(C)(C)NC(=O)[C@H](CO)NC(=O)[C@H](CC(C)C)NC(=O)[C@H](CCCNC(=N)N)NC(=O)[C@@H]1CCCN1C(=O)[C@H](CCCNC(=N)N)NC(=O)[C@@H]1CCC(=O)N1)C(=O)N[C@H](C)C(=O)N[C@H](Cc1ccccc1)C(=O)O) [pE-R-P-R-L-S-Aib-K-G-P-Nle-a-f-OH] for me?
Key: 3.3
